system: Escherichia coli TOP10; assay: shrunken log2 fold change of peptide-encoding DNA abundance (4.5 h post-induction vs induction); higher = less antimicrobial activity (less host growth inhibition); settings: time post-induction: 4.5 h; library: site-saturation at positions 5, 18, 19, 20
MEASUREMENT KIND: shrunken log2 fold change
Note: the reply should be a number with no unit written.

Examples from the recorded data:
RRIRRRPPRLPRPRPRPANIPRP	0.256
RRIRSRPPRLPRPRPRPTIYPRP	-0.405
RRIRWRPPRLPRPRPRPSFQPRP	-0.284
RRIRYRPPRLPRPRPRPAMLPRP	-0.372
RRIRARPPRLPRPRPRPVWIPRP	-0.0967
RRIRARPPRLPRPRPRPSEKPRP	-0.312

Please find the next sequence below.
Exercise: Request the reported shrunken log2 fold change associated with "RRIRSRPPRLPRPRPRPYLLPRP"
Solution: -0.613

###

system: Escherichia coli TOP10; assay: shrunken log2 fold change of peptide-encoding DNA abundance (4.5 h post-induction vs induction); higher = less antimicrobial activity (less host growth inhibition); details: time post-induction: 4.5 h; library: site-saturation at positions 5, 18, 19, 20
Parameter threshold = 0.03. Response is Yes when shrunken log2 fold change meets or exceeds it, else No.

Record excerpt, results attached:
RRIRHRPPRLPRPRPRPQKAPRP	No
RRIRKRPPRLPRPRPRPPTAPRP	Yes
RRIRLRPPRLPRPRPRPWKAPRP	No
RRIRNRPPRLPRPRPRPMDMPRP	No

Exercise: Would you say "RRIRGRPPRLPRPRPRPIKCPRP" shows shrunken log2 fold change at minimum 0.03?
Solution: No

Exercise: What do you get for "RRIRMRPPRLPRPRPRPLCSPRP" ?
Solution: No

Exercise: What do you get for "RRIRDRPPRLPRPRPRPGCSPRP" ?
Solution: Yes

Exercise: What do you get for "RRIRSRPPRLPRPRPRPICEPRP" ?
Solution: Yes

Exercise: What do you get for "RRIRNRPPRLPRPRPRPQAMPRP" ?
Solution: No

Exercise: What do you get for "RRIRWRPPRLPRPRPRPTMHPRP" ?
Solution: Yes

Exercise: What do you get for "RRIRKRPPRLPRPRPRPKILPRP" ?
Solution: Yes

Exercise: What do you get for "RRIRSRPPRLPRPRPRPTPGPRP" ?
Solution: Yes

Exercise: What do you get for "RRIRPRPPRLPRPRPRPCDVPRP" ?
Solution: No

Exercise: What do you get for "RRIRWRPPRLPRPRPRPRFRPRP" ?
Solution: Yes

Exercise: What do you get for "RRIRTRPPRLPRPRPRPCCQPRP" ?
Solution: Yes

###

Reported shrunken log2 fold change values for a set of sequences
tested on: Escherichia coli TOP10; assay: shrunken log2 fold change of peptide-encoding DNA abundance (4.5 h post-induction vs induction); higher = less antimicrobial activity (less host growth inhibition); details: time post-induction: 4.5 h; library: site-saturation at positions 5, 18, 19, 20
Note: the reply should be a number with no unit written.

Exercise: Find shrunken log2 fold change (Escherichia coli TOP10) for the entry "RRIRSRPPRLPRPRPRPNVGPRP"
Solution: -0.0139

Exercise: What do you get for "RRIRSRPPRLPRPRPRPANHPRP" ?
Solution: -0.606

Exercise: What do you get for "RRIRMRPPRLPRPRPRPYVLPRP" ?
Solution: -0.189

Exercise: What do you get for "RRIRIRPPRLPRPRPRPTTIPRP" ?
Solution: -0.578

Exercise: What do you get for "RRIRWRPPRLPRPRPRPQRPPRP" ?
Solution: -0.00892

Exercise: What do you get for "RRIRTRPPRLPRPRPRPVCVPRP" ?
Solution: 0.182

Exercise: What do you get for "RRIRCRPPRLPRPRPRPAKGPRP" ?
Solution: -0.179

Exercise: What do you get for "RRIRSRPPRLPRPRPRPYRFPRP" ?
Solution: -0.134

Exercise: What do you get for "RRIRQRPPRLPRPRPRPYDIPRP" ?
Solution: 0.0432

Exercise: What do you get for "RRIRCRPPRLPRPRPRPWFPPRP" ?
Solution: -0.699

Exercise: What do you get for "RRIRDRPPRLPRPRPRPDFHPRP" ?
Solution: -0.139

Exercise: What do you get for "RRIRTRPPRLPRPRPRPIMDPRP" ?
Solution: -0.233

Exercise: What do you get for "RRIRNRPPRLPRPRPRPHWMPRP" ?
Solution: -0.0835

Exercise: What do you get for "RRIRPRPPRLPRPRPRPRAAPRP" ?
Solution: 0.611

Exercise: What do you get for "RRIRDRPPRLPRPRPRPTFMPRP" ?
Solution: -0.07

###

system: Escherichia coli TOP10; test: shrunken log2 fold change of peptide-encoding DNA abundance (4.5 h post-induction vs induction); higher = less antimicrobial activity (less host growth inhibition); conditions: time post-induction: 4.5 h; library: site-saturation at positions 5, 18, 19, 20
just bin them by shrunken log2 fold change: lower segment = under -0.09, middle segment = from -0.09 up to 0.5, upper segment = 0.5 and over

RRIRDRPPRLPRPRPRPTPGPRP	middle segment

Exercise: Assign a category based on measured shrunken log2 fold change for "RRIRLRPPRLPRPRPRPVHQPRP" and give only the class name.
Solution: middle segment

Exercise: What do you get for "RRIRYRPPRLPRPRPRPMDTPRP" ?
Solution: lower segment

Exercise: What do you get for "RRIRHRPPRLPRPRPRPKPTPRP" ?
Solution: middle segment

Exercise: What do you get for "RRIRGRPPRLPRPRPRPSLDPRP" ?
Solution: upper segment

Exercise: What do you get for "RRIRCRPPRLPRPRPRPLQHPRP" ?
Solution: middle segment

Exercise: What do you get for "RRIRIRPPRLPRPRPRPKTKPRP" ?
Solution: lower segment

Exercise: What do you get for "RRIRIRPPRLPRPRPRPNMRPRP" ?
Solution: lower segment

Exercise: What do you get for "RRIRRRPPRLPRPRPRPILRPRP" ?
Solution: upper segment

###

test system: Escherichia coli TOP10; assay: shrunken log2 fold change of peptide-encoding DNA abundance (4.5 h post-induction vs induction); higher = less antimicrobial activity (less host growth inhibition); conditions: time post-induction: 4.5 h; library: site-saturation at positions 5, 18, 19, 20
Reported shrunken log2 fold change values for a set of sequences
Note: the reply should be a number with no unit written.

RRIRLRPPRLPRPRPRPFGHPRP	-0.177
RRIRIRPPRLPRPRPRPYTFPRP	-2.16
RRIRARPPRLPRPRPRPYGIPRP	-0.00196
RRIRDRPPRLPRPRPRPTDEPRP	0.0606
RRIRPRPPRLPRPRPRPLYPPRP	-0.244

Exercise: Find shrunken log2 fold change (Escherichia coli TOP10) for the entry "RRIRFRPPRLPRPRPRPYDWPRP"
Solution: -0.147

Exercise: What do you get for "RRIRYRPPRLPRPRPRPHEYPRP" ?
Solution: -0.354

Exercise: What do you get for "RRIRDRPPRLPRPRPRPFRTPRP" ?
Solution: -0.0508

###

tested on: Escherichia coli TOP10; test: shrunken log2 fold change of peptide-encoding DNA abundance (4.5 h post-induction vs induction); higher = less antimicrobial activity (less host growth inhibition); settings: time post-induction: 4.5 h; library: site-saturation at positions 5, 18, 19, 20
Parameter threshold = -0.04. Response is true when shrunken log2 fold change meets or exceeds it, else false.

RRIRSRPPRLPRPRPRPYTEPRP	false
RRIRCRPPRLPRPRPRPKEKPRP	true
RRIRKRPPRLPRPRPRPRTMPRP	true

Exercise: Would you say "RRIRWRPPRLPRPRPRPDMFPRP" shows shrunken log2 fold change at minimum -0.04?
Solution: false

Exercise: What do you get for "RRIRMRPPRLPRPRPRPQFCPRP" ?
Solution: true

Exercise: What do you get for "RRIRGRPPRLPRPRPRPRNVPRP" ?
Solution: true

Exercise: What do you get for "RRIRCRPPRLPRPRPRPLAHPRP" ?
Solution: false

Exercise: What do you get for "RRIRYRPPRLPRPRPRPGISPRP" ?
Solution: false

Exercise: What do you get for "RRIRERPPRLPRPRPRPIHAPRP" ?
Solution: true

Exercise: What do you get for "RRIRFRPPRLPRPRPRPFFRPRP" ?
Solution: false

Exercise: What do you get for "RRIRVRPPRLPRPRPRPGNHPRP" ?
Solution: false

Exercise: What do you get for "RRIRGRPPRLPRPRPRPYWNPRP" ?
Solution: false

Exercise: What do you get for "RRIRIRPPRLPRPRPRPVQQPRP" ?
Solution: false

Exercise: What do you get for "RRIRSRPPRLPRPRPRPEREPRP" ?
Solution: false

###

system: Escherichia coli TOP10; assay: shrunken log2 fold change of peptide-encoding DNA abundance (4.5 h post-induction vs induction); higher = less antimicrobial activity (less host growth inhibition); settings: time post-induction: 4.5 h; library: site-saturation at positions 5, 18, 19, 20;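 note: peptides expressed intracellularly from a pBAD plasmid library in pooled LB shake-flask culture, induced with 0.3% L-arabinose, DNA abundance read by NGS, three biological replicates, DESeq2 with apeglm shrinkage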
MEASUREMENT KIND: shrunken log2 fold change
Note: the reply should be a number with no unit written.

Examples from the recorded data:
RRIRDRPPRLPRPRPRPLLPPRP	0.356
RRIRGRPPRLPRPRPRPELTPRP	2.02

Please find the next sequence below.
Exercise: Find shrunken log2 fold change (Escherichia coli TOP10) for the entry "RRIRCRPPRLPRPRPRPHQFPRP"
Solution: 0.0354
